Molecular target: mTOR (Homo sapiens)
Assay: Lanthascreen kinase binding assay, assay G
Settings: read-out: Assay G mTOR IC50
pIC50: −log10 of the molar value. Counter-ions that a name gives are not always drawn.
The entries below are paired with their reported pIC50.

Consider the worked cases shown below.
Give its pIC50 value. Item: Cc1ccc(S(=O)(=O)N[C@@H](C)CO)cc1-c1cnc(N)c(-n2cncn2)n1
< 5.00

Give its pIC50 value. Item: Cc1cc(F)c(S(=O)(=O)NCCCO)cc1-c1cnc(N)c(-c2cnn(C)c2)n1
< 5.04

Give its pIC50 value. Item: Cc1ccc(S(=O)(=O)N2CC(F)(F)C(F)(F)C2)cc1-c1cnc(N)c(-n2cncn2)n1
< 5.00

Give its pIC50 value. Item: Cc1ccc(S(=O)(=O)N[C@@H]2CCOC2)cc1-c1cnc(N)c(-n2cncn2)n1
< 5.00

Give its pIC50 value. Item: Cc1cc(-c2nc(-c3cc(S(=O)(=O)NCC4(O)CCC4)ccc3C)cnc2N)ccn1
5.19

Others:
Give its pIC50 value. Item: Cc1ccc(S(=O)(=O)NC[C@H]2C[C@@H](O)C2)cc1-c1cnc(N)c(-c2cc(C3CC3)no2)n1
< 5.02

Give its pIC50 value. Item: Cc1noc(-c2nc(-c3cc(S(=O)(=O)NCC(C)(C)CO)ccc3C)cnc2N)n1
< 5.04

Give its pIC50 value. Item: Cc1ccc(S(=O)(=O)NCC2(C)COC2)cc1-c1cnc(N)c(-c2cnn(C)c2)n1
< 5.00

Give its pIC50 value. Item: CCc1noc(-c2nc(-c3cc(S(=O)(=O)NCCC(C)(C)O)ccc3C)cnc2N)n1
< 5.04

Give its pIC50 value. Item: Cc1ccc(S(=O)(=O)NCC(C)(C)O)cc1-c1cnc(N)c(-n2cnc(CN(C)C)n2)n1 [Example 117, hydrochloride salt]
< 5.00

Give its pIC50 value. Item: Cc1ccc(S(=O)(=O)NCC2(O)CCOCC2)cc1-c1cnc(N)c(-n2cncn2)n1
< 5.00

###

Test system: IL-8-induced neutrophil shape change in human whole blood
Test: Whole blood neutrophil shape change assay (L)
Assay type: cell-based
Details: Homo sapiens, Neutrophil, IL-8, human whole blood, read-out: Assay L WBSC IC50
pIC50: −log10 of the molar value.
observationType: pIC50

Give its pIC50 value. Item: Cc1nc(C)n(-c2nc(-c3cc(S(=O)(=O)NCC(C)(C)O)ccc3C)cnc2N)n1
6.07

a = Cc1ccc(S(=O)(=O)NC[C@@H]2CCC(C)(C)O2)cc1-c1cnc(N)c(-n2cncn2)n1
b = Cc1ccc(S(=O)(=O)NCCC(C)(C)O)cc1-c1cnc(N)c(-c2csc(CN3CCOCC3)c2)n1
Given a and given b , which shows the smaller recorded pIC50? State your choice using its label.
a
(a: 5.20, b: 6.39)

P = Cc1ccc(S(=O)(=O)NC2CC(F)(F)C2)cc1-c1cnc(N)c(-n2cncn2)n1
Q = Cc1cc(-c2nc(-c3cc(S(=O)(=O)NC4CCN(C(C)C)CC4)ccc3C)cnc2N)ccn1
R = Cc1ccc(S(=O)(=O)NCC2(C)COC2)cc1-c1cnc(N)c(-c2cnn(C)c2)n1
// ascending sort on recorded pIC50 A complete answer lists every label in the requested sequence.
Q, P, R

P = Cc1ccc(S(=O)(=O)NC[C@@H]2COCCN2)cc1-c1cnc(N)c(-c2cn(C)nc2C)n1
Q = Cc1ccc(S(=O)(=O)N2CC(C)(O)C2)cc1-c1cnc(N)c(-n2cncn2)n1
Given P and given Q , which shows the smaller recorded pIC50? State your choice using its label.
Q
(Q: 5.42, P: 5.66)

Source of measurements: patent US10004732B2
